# System: RPMI-8226
# procedure_summary: NCI tumour cell line growth inhibition, 48 h
Active and inactive are the calls of the source. Cut-off read from the data, not from the text of the source: active = GI50 up to about 1.1 µM and inactive = higher.
Labels: active, inactive

>  <compound>
CCCCNc1nc(NC2OCC(OC(C)=O)C(OC(C)=O)C2OC(C)=O)c(N=O)c(=O)n1C (stereo not given)

>  <category_label>
inactive

$$$$
>  <compound>
CCC(C)OC(=O)C1C2CCC(O2)C1C(=O)O (stereo not given)

>  <category_label>
inactive

$$$$
>  <compound>
CC(O)C(O)C(O)C(/C=N\Nc1ccccc1)=N/Nc1ccccc1 (stereo not given)

>  <category_label>
inactive

$$$$
>  <compound>
Cc1cc([N+](=O)[O-])c(C)c(Br)c1C

>  <category_label>
inactive

$$$$
>  <compound>
O=C1C(CN2CCOCC2)CCCC1CN1CCOCC1 (stereo not given)

>  <category_label>
active

$$$$
>  <compound>
O=C1Cc2c([nH]c3ccccc23)C2(CC3CCCCN13)OCCO2 (stereo not given)

>  <category_label>
inactive

$$$$
>  <compound>
C(=N\NC1=NCCN1)/c1cccc2cc3ccncc3nc12

>  <category_label>
inactive

$$$$
>  <compound>
CCC/C(Cl)=N/OC(NC(=O)OCC)(C(F)(F)F)C(F)(F)F

>  <category_label>
inactive

$$$$
>  <compound>
COc1ccc(/C=C(/c2ccccc2)c2c(C)cc(C)c(/C(=C\c3ccc(OC)cc3)c3ccccc3)c2/N=N/c2cc(C)cc(C)c2)cc1

>  <category_label>
inactive

$$$$
>  <compound>
COC(=O)C1CCC(=O)N1C(c1cc(OC)c(OC)c(OC)c1)c1cc(OC)c(OC)c(OC)c1 (stereo not given)

>  <category_label>
inactive

$$$$

* * *

# Test system: SNB-75
# procedure_summary: NCI tumour cell line growth inhibition, 48 h
Calls of active or inactive are those of the source. No stated cut-off is given here; in the data, active = GI50 up to about 1.1 µM and inactive = higher.

>  <compound>
O=C(/C=C/c1ccc(O)c(O)c1)Oc1ccccc1

>  <GI50>
13.1 µM (inactive)

$$$$
>  <compound>
CCCCN1CN2C(=O)C(C(=O)OCC)C(=O)c3sc4nc(SC)nc1c4c32 (centres undefined)

>  <GI50>
17.5 µM (inactive)

$$$$
>  <compound>
COc1cc(C2SC(=N)Nc3c2c(C)nn3C(=O)c2ccc(Cl)cc2)ccc1O (centres undefined)

>  <GI50>
> 10 µM (inactive)

$$$$
>  <compound>
C=C1CC(C)(c2cccc(Nc3nc4ccccc4c4occc34)c2)OC1=O (centres undefined)

>  <GI50>
5.58 µM (inactive)

$$$$
>  <compound>
Cc1cc(C#N)c[n+](C)c1

>  <GI50>
> 100 µM (inactive)

$$$$
>  <compound>
CC1=C2C(=O)[C@H]3[C@@H](CC=C4C[C@@H](O)CC[C@@]43C)[C@@H]2CC[C@]12O[C@@H]1C[C@H](C)CN[C@H]1[C@H]2C [JERVINE]

>  <GI50>
> 36.4 µM (inactive)

$$$$
>  <compound>
COc1ccc(/C=C(/c2ccccc2)c2c(C)cc(C)c(/C(=C\c3ccc(OC)cc3)c3ccccc3)c2/N=N/c2cc(C)cc(C)c2)cc1

>  <GI50>
6.92 µM (inactive)

$$$$
>  <compound>
Nc1ccccc1.O=C(O)C(C(F)(F)F)C(F)(F)F

>  <GI50>
> 100 µM (inactive)

$$$$
>  <compound>
[N-]=[N+]=C(C(=O)OCC#CCOC(=O)C(=[N+]=[N-])S(=O)(=O)c1ccccc1)S(=O)(=O)c1ccccc1

>  <GI50>
> 10 µM (inactive)

$$$$

Data provenance is ChEMBL document CHEMBL1201862.
